- System: MALME-3M melanoma
- PROCEDURE_DETAILS: NCI tumour cell line growth inhibition, 48 h
Give GI50 for every item shown.

Report GI50 for every entry below.
1. CN(C)CC/C=C1\c2ccccc2Sc2ccc(Cl)cc21
2. COc1cc(N2CCC(N3CCN(C)CC3)CC2)ccc1Nc1ncc(Cl)c(Nc2ccccc2P(C)(C)=O)n1

[reply]
1: 1.71 µM; 2: 7.66 µM

----------
- Test system: UO-31 renal
- PROCEDURE_DETAILS: NCI tumour cell line growth inhibition, 48 h; in the data active means GI50 below about 0.43 µM; inactive means the rest
Would you mind answering with one of these outcomes? YES for active, NO for inactive

[ask] Any idea what this test logged for CCOC(=O)[C@H](CSSc1ncnc2cc[nH]c12)NC(=O)[C@@H](C)c1ccc2cc(OC)ccc2c1 ?
[reply] NO

[ask] Any idea what this test logged for CS(=O)(=O)CCNCc1ccc(-c2ccc3ncnc(Nc4ccc(OCc5ccccc5)c(C(F)(F)F)c4)c3c2)o1 ?
[reply] NO

[ask] Any idea what this test logged for COc1cc2c(c(OC)c1OC)-c1ccc([O-])c(=O)cc1[C@@H](NC(C)=O)CC2.COc1cc2c(c(OC)c1OC)-c1ccc([O-])c(=O)cc1[C@@H](NC(C)=O)CC2.[Cu+2] ?
[reply] NO

----------
Give log10 TGI for every item shown.
- Test system: UO-31 renal
- PROCEDURE_DETAILS: NCI tumour cell line growth inhibition, 48 h
log10 TGI, µM

Use the examples below as a reference point.
CC1=CC(C)C(C)N(CCNC(=O)Nc2ccccc2)c2ccccc21 (stereo not given) ... 1.99
N=c1nc(N)c2cc3c(N)nc(=N)c3cc12 ... 1.54
CC1(C)SC2C(C(=O)O)N=C(Cc3ccccc3)N2C1C(=O)O (stereo not given) ... 1.60
C=C1C(=O)O[C@@H]2[C@H]1CC[C@H](C)[C@]1(O)CCC(=O)[C@@]21C ... 0.68
CC(=O)O[C@H]1CC[C@H]2[C@@H]3CCc4cc(O)c(I)cc4[C@H]3CC[C@]12C ... 1.43

Report log10 TGI for every entry below.
1. CCc1ccc(C2=C/C(=C/c3ccc(Cl)cc3)C(=O)N2CCc2ccc(S(N)(=O)=O)cc2)cc1
2. O=C1C2CC3C(CC2C(=O)[N]1[Sn]([c]1ccccc1)([c]1ccccc1)[c]1ccccc1)C1(Cl)C(Cl)=C(Cl)C3(Cl)C1(Cl)Cl (stereo not given)
3. CC1CC(N)=Nc2ccccc2N1Cc1ccccc1 (stereo not given)

[reply]
1. 0.66
2. -0.67
3. 1.63

----------
- Test system: SNB-75 CNS
- PROCEDURE_DETAILS: NCI tumour cell line growth inhibition, 48 h; in the data active = GI50 below about 0.43 µM; inactive = the rest
Would you mind answering with one of these outcomes? active, inactive

O=S(=O)(NCCNc1cc(-c2cn(-c3ccccc3)nc2-c2cccc(O)c2)ccn1)c1ccc(C(F)(F)F)cc1 ... inactive
CN1CCN(C(=O)c2ccc(NC(=O)Nc3ccc(N(C)c4ccnc(Nc5ccc(CS(C)(=O)=O)cc5)n4)cc3)cc2)CC1 ... inactive

[ask] Any idea what this test logged for CCOC(=O)[C@H](CSSc1ncnc2cc[nH]c12)NC(=O)[C@@H](C)c1ccc2cc(OC)ccc2c1 ?
[reply] active

----------
- Test system: SK-MEL-28 melanoma
- PROCEDURE_DETAILS: NCI tumour cell line growth inhibition, 48 h
QUANTITY_NAME: TGI (µM)
Answers are plain numbers, in µM.

Use the examples below as a reference point.
c1cncc(C2c3[nH]c4ccccc4c3CCN2CCCN2CCCCC2)c1 (configuration not stated) ... 47
CCCCCCCCCOC(=S)NC ... 58.5
COC(=O)[C@H](CCSC)NC(=O)c1ccc(CNC(=O)/C=C/c2cccc(Oc3ccccc3)c2)cc1 ... 34.2
O=C1C2CC3C(CC2C(=O)[N]1[Sn]([c]1ccccc1)([c]1ccccc1)[c]1ccccc1)C1(Cl)C(Cl)=C(Cl)C3(Cl)C1(Cl)Cl (configuration not stated) ... 0.295
O=c1ncc(-c2ccc(C(F)(F)F)cc2)c(NC2CCCCCC2)[nH]1 ... 33.9

// next item, TGI requested
Record CCN(Cc1ccc(F)cc1)c1ccc(CO)c(Cl)c1 . Reported TGI: 39.3

----------
- Tested on: A498 renal
- PROCEDURE_DETAILS: NCI tumour cell line growth inhibition, 48 h; in the data active = GI50 below about 0.43 µM; inactive = the rest
Would you mind answering with one of these outcomes? active, inactive

Consider the following illustrative entries.
CCN1C(=O)N(CC)C2C1NN=c1s/c(=C3\C(=O)N(CCC(C)C)c4ccccc43)c(=O)n12 (stereo not given) ... inactive
O=C1c2ccccc2C(=O)N1/N=C\c1ccc(Br)cc1 ... inactive
O=c1oc2ccc(Cl)cc2c(=O)n1-c1ccc(Cl)cc1F ... active
CCCCCCN(CCCCCC)C(=N)c1ccnc2ccccc12 ... inactive
COc1cc2[nH]c(C(=O)c3cc(OC)c(OC)c(OC)c3)c(N)c2cc1C#CCO ... active
CN1CCN(C(=O)c2ccc(NC(=O)Nc3ccc(N(C)c4ccnc(Nc5ccc(CS(C)(=O)=O)cc5)n4)cc3)cc2)CC1 ... inactive

[ask] Any idea what this test logged for Nc1ccccc1NC(=O)c1ccc(CSc2nc(N3CCOCC3)c3cccn3n2)cc1 ?
[reply] inactive

[ask] Any idea what this test logged for O=C1C(=O)c2cc([N+](=O)[O-])ccc2-c2ccccc21 ?
[reply] inactive

[ask] Any idea what this test logged for Cc1ccc(-c2csc(N(C(=O)N3CCN(c4cc5c(cc4F)c(=O)c(C(=O)O)cn5C4CC4)CC3)c3ccccc3)n2)cc1 ?
[reply] active

[ask] Any idea what this test logged for O=S(=O)(NCCNc1cc(-c2cn(-c3ccccc3)nc2-c2cccc(O)c2)ccn1)c1ccc(C(F)(F)F)cc1 ?
[reply] inactive

----------
Give TGI for every item shown.
- System: SN12C renal
- PROCEDURE_DETAILS: NCI tumour cell line growth inhibition, 48 h

O=C(NNC(=S)Nc1ccccc1)C12CC3CC(CC(C3)C1)C2 ... > 100 µM
C[C@]12CCC[C@H](OC=O)C1(O)C[C@H](C(=O)O)CC2 (stereo partly specified) ... > 100 µM
COC(=O)C1([C@@H]2C[C@@H](O)[C@]3(C)CC/C=C(\C)CCC[C@H](C)[C@H](O)[C@@H]2O3)CC1 ... > 100 µM
CCOC(=O)C1Cc2c(ccc(OC)c2OC)C(=O)C1N (stereo unspecified) ... > 100 µM
O=C1C=C(Nc2ccccc2)c2ncccc2C1=O ... 0.829 µM

Report TGI for every entry below.
1. Cc1ccc2c(c1)C(=O)/C(=C1/CCc3ccc(C)cc31)C2
2. Cn1c(=O)n(-c2c3ccccc3c(Cl)c3ccccc23)n(C(C)(C)C)c1=O
3. COc1cc2[nH]c(C(=O)c3cc(OC)c(OC)c(OC)c3)c(N)c2cc1C#CCO
4. COC1=CC(=O)c2ccc(C(C)C)cc2C1(C)C1=NC(C)(C)CO1 (stereo unspecified)
5. CCc1ccccc1NC(=O)/C(CC(=O)c1c(C)n([O-])c2ccccc2[n+]1=O)=N\NS(=O)(=O)c1ccc(C)cc1

[reply]
["> 100 µM", "> 100 µM", "98.3 µM", "> 100 µM", "> 100 µM"]

Record COC(=O)c1cc(C#N)[nH]c1-c1ccsc1 . Reported TGI: > 100 µM

----------
- Test system: TK-10 renal
- PROCEDURE_DETAILS: NCI tumour cell line growth inhibition, 48 h
Give GI50 for every item shown.

Use the examples below as a reference point.
Cc1ccc(-c2csc(N(C(=O)N3CCN(c4cc5c(cc4F)c(=O)c(C(=O)O)cn5C4CC4)CC3)c3ccccc3)n2)cc1 ... 541 nM
CCC[CH2][Sn]1([CH2]CCC)[O]C(c2ccccn2)S(=O)(=O)[O]1 (stereo not given) ... 2540 nM
CC[O-].CC[O-].[O-]c1ccccc1C=Nc1ccccc1.[O-]c1ccccc1C=Nc1ccccc1.[Ti+4] ... > 100000 nM
CCCCCCN(CCCCCC)C(=N)c1ccnc2ccccc12 ... 2150 nM

Report GI50 for every entry below.
1. CS(=O)(=O)CCNCc1ccc(-c2ccc3ncnc(Nc4ccc(OCc5ccccc5)c(C(F)(F)F)c4)c3c2)o1
2. C=C(C)C(=O)NC(N)=NC#N
3. COc1cc2[nH]c(C(=O)c3cc(OC)c(OC)c(OC)c3)c(N)c2cc1C#CCO
4. O=C1C(=O)c2cc([N+](=O)[O-])ccc2-c2ccccc21

[reply]
["7610 nM", "33000 nM", "44100 nM", "1770 nM"]

Report GI50 for every entry below.
1. CCCCCCCCCCCCCOC(=O)c1c(C)[nH]c(/C=C2\N=C(c3ccc[nH]3)C=C2OC)c1C
2. COc1cc2c(c(OC)c1OC)-c1ccc(OC)c(=O)cc1[C@@H](NC(=O)CCl)CC2

[reply]
174 nM
64.7 nM

----------
- Test system: SN12C renal
- PROCEDURE_DETAILS: NCI tumour cell line growth inhibition, 48 h
Give GI50 for every item shown.

CCCCCCCCN(CCCCCCCC)C(=N)c1ccnc2ccccc12 ... 1.16 µM
COc1cc2c(c(OC)c1OC)-c1ccc([O-])c(=O)cc1[C@@H](NC(C)=O)CC2.COc1cc2c(c(OC)c1OC)-c1ccc([O-])c(=O)cc1[C@@H](NC(C)=O)CC2.[Cu+2] ... 4.97 µM
CCC1CCc2nc3sc(C(=O)Nc4ccccc4F)c(N)c3cc2C1 (stereo unspecified) ... > 100 µM
C=C(C)C(=O)NC(N)=NC#N ... 72.1 µM
O=C1C(=O)c2cc([N+](=O)[O-])ccc2-c2ccccc21 ... 1.66 µM

Report GI50 for every entry below.
1. COc1cc2c(c(OC)c1OC)-c1ccc(OC)c(=O)cc1[C@@H](NC(=O)CCl)CC2
2. CC(=O)O[C@H]1CC[C@H]2[C@@H]3CCc4cc(O)c(I)cc4[C@H]3CC[C@]12C
3. COc1ccc(-c2coc3ncnc(N)c23)cc1
4. O=c1ncc(-c2ccc(C(F)(F)F)cc2)c(NC2CCCCCC2)[nH]1
5. O=C1C2CC3C(CC2C(=O)[N]1[Sn]([c]1ccccc1)([c]1ccccc1)[c]1ccccc1)C1(Cl)C(Cl)=C(Cl)C3(Cl)C1(Cl)Cl (stereo unspecified)
6. Cc1cc(NC(=O)c2ccc(NS(=O)(=O)CCO)cc2N2CCC3(CC2)CC3)nc(N2CCC(F)(F)CC2)n1

[reply]
1. < 0.0142 µM
2. 18 µM
3. > 25 µM
4. 16.2 µM
5. 0.17 µM
6. 11.7 µM

Ref: PubChem BioAssay (NCI)
